System: HEK-293T
Assay: Incucyte cell viability with HEK293T; note: unitless GR value; below 1 slowed growth and below 0 cell loss
Type: toxicity, cell-based
Settings: human, 18 h, 10 µM, compound concentration 10 uM, replicate number 2
Parameter Growth Rate: see the listing below.

Worked set:
compound: CCCOc1cnc(CN/C=C2\C(=O)NC(=O)c3ccc(I)cc32)cc1O
Growth Rate: -0.6

compound: CNC(=O)c1c[nH]c2ccc(Nc3nccc(-c4ccccn4)n3)cc12
Growth Rate: 0.14

compound: C=CC(=O)Nc1cc(-c2nn(C3CCC(N4CCN(C(C)=O)CC4)CC3)c3ncnc(N)c23)ccc1Oc1ccccc1 (stereo not given)
Growth Rate: -0.22

compound: CC(C)n1cnc2c(Nc3cccc(Cl)c3)nc(N[C@H]3CCCC[C@@H]3N)nc21
Growth Rate: -0.35

Attention now shifts to the item below.
So what does the record say about Growth Rate for CC(=O)c1ccc2c(c1)/C(=C(/NC1CCN(C)CC1)c1ccc3c(c1)OCO3)C(=O)N2 ?
-0.63

----------
Tested on: Fibroblast
Assay: Incucyte cell viability with human fibroblast; note: unitless GR value; below 1 slowed growth and below 0 cell loss
Type: toxicity, cell-based
Settings: 6 h, 10 µM, compound concentration 10 uM, replicate number 1
Parameter Growth Rate: see the listing below.
Respond using a number only.

compound: CCN(CC)C/C=C/C(=O)Nc1cc2c(Nc3ccc(F)c(Cl)c3)ncnc2cc1OCC1CC1
endpoint_name: Growth Rate
test_result: 0.22
--
compound: Cc1ccc(NC(=O)c2ccc3c(c2)OCCO3)cc1NC(=O)c1ccc2nc(OCCN3CCCC3)ccc2c1
endpoint_name: Growth Rate
test_result: -0.21
--
compound: Cc1c(CN2CCC3(CC2)CN(c2ncnc4sc(CC(F)(F)F)cc24)C3)ccc2c1cc(C#N)n2CC(N)=O
endpoint_name: Growth Rate
test_result: -0.45

So what does the record say about Growth Rate for CC(C)(C)c1cc(NC(=O)c2csc(Nc3ccc(Cl)cc3)n2)no1 ?
0.89

So what does the record say about Growth Rate for Nc1nc(-c2nn(Cc3ccccc3F)c3ncccc23)ncc1C1CC1 ?
0.35

So what does the record say about Growth Rate for CCn1c(-c2ccncc2)cc2c1CCNC2=O ?
-0.99

So what does the record say about Growth Rate for COc1ccc(-c2c(-c3ccccc3)oc3ncnc(O[C@H](C)CCCCC(=O)O)c23)cc1 ?
0.79

So what does the record say about Growth Rate for COC(=O)C1=C(C)NC(C)=C(C(=O)OC(C)C)C1c1cccc2nonc12 (stereo not drawn) ?
-0.03

So what does the record say about Growth Rate for CN1CCN([C@H]2CC[C@@H](n3cc(-c4ccc(Oc5ccccc5)cc4)c4c(N)ncnc43)CC2)CC1 ?
-1

----------
Test system: U2OS
Assay: Incucyte cell viability with U2OS; note: unitless GR value; below 1 slowed growth and below 0 cell loss
Assay type: toxicity, cell-based
Details: human, 12 h, 10 µM, compound concentration 10 uM, replicate number 1
endpoint_name: Growth Rate
Respond using a number only.

Worked set:
compound: FC(F)(F)Oc1ccc(-c2ccc3nnc(C(F)(F)F)n3c2)cc1
Growth Rate: 0.82
//
compound: O=C1NC(=NCc2cccs2)SC1=Cc1ccc2ncccc2c1
Growth Rate: 0.27
//
compound: C[C@@H](Cn1c(=O)[nH]/c(=N\c2ccc(Oc3ccccn3)cc2)n(Cc2ccc(Cl)cc2)c1=O)C(=O)O
Growth Rate: 0.97

So what does the record say about Growth Rate for COc1cc(C)c(S(=O)(=O)N(C)CCC(=O)N[C@H]2CC[C@@H](N3CCC4CN(C)CC4C3)CC2)c(C)c1.Cl.Cl (stereo partly specified) ?
0.97

So what does the record say about Growth Rate for O=C1Nc2ccc(C(=O)c3ccco3)cc2C1=Cc1cc(Cl)c(O)c(Cl)c1 [GW406108X] ?
0.5
